- target-or-system: recombinant human ACC1 (rhACC1) (Homo sapiens (Human))
- assay-details: recombinant hACC1 Transcreener ADP detection FP assay
- conditions: 50 μM ATP, 120 min at 25° C.
pIC50: −log10 of the molar value.
measure: pIC50

[
  {
    "compound": "COc1n[nH]c2ccc(C(=O)N3CCC4(CC3)Cc3cn(C(C)(C)C)nc3C(=O)N4)cc12 [Example 81]",
    "pIC50": 7.34
  }
]

I = CNc1nccc2ccc(C(=O)N3CCC4(CC3)Cc3cnn(C(C)C)c3C(=O)N4)cc12 [Example 36]
II = COc1ccc2ncc(C(=O)N3CCC4(CC3)Cc3cn(C(C)(C)C)nc3C(=O)N4)cc2c1 [Example 48]
III = CNc1n[nH]c2ccc(C(=O)N3CCC4(CC3)Cc3cnn(C(C)C)c3C(=O)N4)cc12 [Example 37]
Prompt line: Put the entries in order of pIC50, starting with the largest number. Write the labels in rank order as requested.
Response line: II, I, III

---

- target-or-system: recombinant human ACC1 (rhACC1) (Homo sapiens (Human), UniProt Q13085)
- assay-details: recombinant hACC1 Transcreener ADP detection FP assay
- Assay type: biochemical
- conditions: 50 μM ATP, 120 min at 25° C.
measure: IC50 (nM)

[
  {
    "molecule-smiles": "CCc1n[nH]c2ccc(C(=O)N3CCC4(CC3)Cc3cnn(C(C)C)c3C(=O)N4)cc12",
    "IC50 [nM]": 251
  },
  {
    "molecule-smiles": "CC(C)n1ncc2c1C(=O)NC1(CCN(C(=O)c3cc(Cl)c4[nH]ncc4c3)CC1)C2",
    "IC50 [nM]": 88
  },
  {
    "molecule-smiles": "COc1ccc2ccc(C(=O)N3CCC4(CC3)Cc3cn(C(C)(C)C)nc3C(=O)N4)cc2c1",
    "IC50 [nM]": 8.5
  }
]

1 = Cc1cc(C(=O)N2CCC3(CC2)Cc2cnn(C(C)(C)C)c2C(=O)N3)cc2cn[nH]c12
2 = COc1cccc2ccc(C(=O)N3CCC4(CC3)Cc3cn(C(C)(C)C)nc3C(=O)N4)cc12
Prompt line: Select the item with the higher value of IC50 from the options 1 and 2 listed. Reply with the label of the item you choose.
Response line: 1
(1: 62 nM, 2: 5.8 nM)

P = CC(C)(C)n1cc2c(n1)C(=O)NC1(CCN(C(=O)c3cc(C(F)(F)F)c4[nH]ncc4c3)CC1)C2
Q = CC(C)(C)n1cc2c(n1)C(=O)NC1(CCN(C(=O)c3ccc4ccc(N)nc4c3)CC1)C2
Prompt line: Select the item with the higher value of IC50 from the options P and Q listed. Reply with the label of the item you choose.
Response line: P

---

- target-or-system: recombinant human ACC2 (rhACC2) (Homo sapiens (Human), UniProt O00763)
- Sequence (O00763 whole entry V2141I): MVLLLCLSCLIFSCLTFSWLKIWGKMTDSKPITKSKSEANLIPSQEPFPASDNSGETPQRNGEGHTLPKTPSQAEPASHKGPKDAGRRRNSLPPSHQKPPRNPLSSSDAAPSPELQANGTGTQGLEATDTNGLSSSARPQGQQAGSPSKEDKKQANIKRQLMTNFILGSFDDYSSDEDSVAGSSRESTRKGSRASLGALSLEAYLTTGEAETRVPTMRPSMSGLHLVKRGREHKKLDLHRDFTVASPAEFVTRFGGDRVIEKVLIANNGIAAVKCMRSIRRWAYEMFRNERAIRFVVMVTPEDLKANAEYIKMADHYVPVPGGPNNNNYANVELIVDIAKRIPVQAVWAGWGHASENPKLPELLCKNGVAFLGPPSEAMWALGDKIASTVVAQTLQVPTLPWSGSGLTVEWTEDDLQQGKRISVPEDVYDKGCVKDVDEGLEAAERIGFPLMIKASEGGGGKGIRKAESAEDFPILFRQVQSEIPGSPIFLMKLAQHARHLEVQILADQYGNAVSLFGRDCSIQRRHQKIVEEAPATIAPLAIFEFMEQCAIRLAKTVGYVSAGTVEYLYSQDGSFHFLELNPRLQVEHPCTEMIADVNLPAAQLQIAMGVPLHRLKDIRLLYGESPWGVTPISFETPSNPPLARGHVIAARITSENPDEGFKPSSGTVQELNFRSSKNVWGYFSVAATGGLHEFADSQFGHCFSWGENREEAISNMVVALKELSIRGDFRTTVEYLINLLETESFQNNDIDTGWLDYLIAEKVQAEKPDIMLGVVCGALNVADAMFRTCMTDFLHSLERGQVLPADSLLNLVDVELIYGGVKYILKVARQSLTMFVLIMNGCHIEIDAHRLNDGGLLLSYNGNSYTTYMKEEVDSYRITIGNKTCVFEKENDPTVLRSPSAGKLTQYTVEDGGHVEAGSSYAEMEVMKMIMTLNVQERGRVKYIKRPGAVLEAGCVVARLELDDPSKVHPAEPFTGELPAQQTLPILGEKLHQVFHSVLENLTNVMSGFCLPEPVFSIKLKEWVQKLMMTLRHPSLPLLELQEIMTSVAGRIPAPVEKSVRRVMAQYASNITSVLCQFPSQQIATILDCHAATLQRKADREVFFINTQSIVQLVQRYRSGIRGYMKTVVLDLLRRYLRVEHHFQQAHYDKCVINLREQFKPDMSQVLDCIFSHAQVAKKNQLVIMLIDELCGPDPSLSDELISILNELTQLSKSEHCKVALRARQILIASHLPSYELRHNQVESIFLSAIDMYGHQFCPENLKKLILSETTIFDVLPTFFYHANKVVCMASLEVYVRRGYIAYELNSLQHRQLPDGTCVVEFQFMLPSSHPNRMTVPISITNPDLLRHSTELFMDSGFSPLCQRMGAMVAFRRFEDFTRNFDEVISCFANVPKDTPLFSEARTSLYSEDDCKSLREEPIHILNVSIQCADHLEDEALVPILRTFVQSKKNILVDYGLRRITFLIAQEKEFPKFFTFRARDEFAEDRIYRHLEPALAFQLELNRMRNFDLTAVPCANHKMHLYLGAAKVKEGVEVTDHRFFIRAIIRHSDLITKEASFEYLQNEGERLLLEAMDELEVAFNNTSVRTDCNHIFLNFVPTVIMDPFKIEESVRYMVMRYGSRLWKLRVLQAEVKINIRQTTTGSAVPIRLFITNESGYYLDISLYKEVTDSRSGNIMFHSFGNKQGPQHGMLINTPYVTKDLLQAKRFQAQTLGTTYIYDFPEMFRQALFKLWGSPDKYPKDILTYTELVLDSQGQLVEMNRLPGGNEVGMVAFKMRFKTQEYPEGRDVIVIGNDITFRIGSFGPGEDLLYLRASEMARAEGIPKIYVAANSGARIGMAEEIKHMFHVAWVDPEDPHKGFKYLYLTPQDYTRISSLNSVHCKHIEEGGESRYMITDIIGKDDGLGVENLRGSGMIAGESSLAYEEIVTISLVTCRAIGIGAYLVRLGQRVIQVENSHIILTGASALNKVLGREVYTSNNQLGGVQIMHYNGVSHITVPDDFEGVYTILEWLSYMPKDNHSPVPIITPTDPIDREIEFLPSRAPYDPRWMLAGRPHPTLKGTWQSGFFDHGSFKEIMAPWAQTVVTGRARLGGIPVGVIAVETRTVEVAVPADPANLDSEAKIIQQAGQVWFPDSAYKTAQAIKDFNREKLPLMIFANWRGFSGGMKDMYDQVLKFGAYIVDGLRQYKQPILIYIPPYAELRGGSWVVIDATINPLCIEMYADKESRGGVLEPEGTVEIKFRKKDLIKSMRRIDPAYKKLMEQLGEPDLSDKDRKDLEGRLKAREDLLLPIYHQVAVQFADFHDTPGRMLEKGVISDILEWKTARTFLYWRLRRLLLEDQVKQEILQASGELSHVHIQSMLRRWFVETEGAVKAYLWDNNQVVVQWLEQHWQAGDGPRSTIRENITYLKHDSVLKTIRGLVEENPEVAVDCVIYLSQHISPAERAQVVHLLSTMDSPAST
- assay-details: recombinant hACC2 Transcreener ADP detection FP assay
- Assay type: biochemical
- conditions: 50 uM ATP, 50 min at 25° C.
pIC50: −log10 of the molar value.
measure: pIC50

Worked set:
[
  {
    "molecule-smiles": "COc1cc2ccc(C(=O)N3CCC4(CC3)Cc3cn(C(C)(C)C)nc3C(=O)N4)cc2cn1",
    "pIC50": 7.51
  },
  {
    "molecule-smiles": "CC(C)n1ncc2c1C(=O)NC1(CCN(C(=O)c3cnc4ccccc4c3)CC1)C2",
    "pIC50": 6.52
  }
]

1 = CC(C)n1ncc2c1C(=O)NC1(CCN(C(=O)c3ccc4c(cnn4C)c3)CC1)C2
2 = CNc1nccc2ccc(C(=O)N3CCC4(CC3)Cc3cnn(C(C)C)c3C(=O)N4)cc12
3 = CC(C)n1ncc2c1C(=O)NC1(CCN(C(=O)c3ccc4cccnc4c3)CC1)C2
Prompt line: Put the entries in order of pIC50, starting with the largest number. Write the labels in rank order as requested.
Response line: 2, 3, 1

A = CC(C)(C)n1cc2c(n1)C(=O)NC1(CCN(C(=O)c3cc(C(F)(F)F)c4[nH]ncc4c3)CC1)C2
B = CC(C)n1ncc2c1C(=O)NC1(CCN(C(=O)c3cnc4cc[nH]c4c3)CC1)C2
Prompt line: Select the item with the higher value of pIC50 from the options A and B listed. Reply with the label of the item you choose.
Response line: A

---

- target-or-system: recombinant human ACC1 (rhACC1) (Homo sapiens (Human))
- assay-details: recombinant hACC1 Transcreener ADP detection FP assay
- conditions: 50 μM ATP, 120 min at 25° C.
measure: IC50 (nM)

[
  {
    "compound": "COc1ccc2ccc(C(=O)N3CCC4(CC3)Cc3cnn(C(C)C)c3C(=O)N4)cc2n1 [Example 28]",
    "output-unit": "nM",
    "IC50": 158
  }
]

A = CC(C)Nc1ccc2ccc(C(=O)N3CCC4(CC3)Cc3cn(C(C)(C)C)nc3C(=O)N4)cc2n1 [Example 107]
B = CC(C)n1ncc2c1C(=O)NC1(CCN(C(=O)c3ccc4[nH]nc(Cl)c4c3)CC1)C2 [Example 34]
Prompt line: Select the item with the higher value of IC50 from the options A and B listed. Reply with the label of the item you choose.
Response line: B

---

- target-or-system: recombinant human ACC2 (rhACC2) (Homo sapiens (Human), UniProt O00763)
- assay-details: recombinant hACC2 Transcreener ADP detection FP assay
- conditions: 50 uM ATP, 50 min at 25° C.
measure: IC50 (nM)

Worked set:
[
  {
    "compound": "CC(F)(F)CNc1ccc2ccc(C(=O)N3CCC4(CC3)Cc3cn(C(C)(C)C)nc3C(=O)N4)cc2n1 [Example 125]",
    "target-or-system": "recombinant human ACC2 (rhACC2) (Homo sapiens (Human), UniProt O00763)",
    "IC50 [nM]": 1.7
  },
  {
    "compound": "CNc1ccc2cc(C(=O)N3CCC4(CC3)Cc3cn(C(C)(C)C)nc3C(=O)N4)ccc2n1 [Example 69]",
    "target-or-system": "recombinant human ACC2 (rhACC2) (Homo sapiens (Human), UniProt O00763)",
    "IC50 [nM]": 28
  },
  {
    "compound": "CNc1cc2ccc(C(=O)N3CCC4(CC3)Cc3cnn(C(C)C)c3C(=O)N4)cc2cn1 [Example 38]",
    "target-or-system": "recombinant human ACC2 (rhACC2) (Homo sapiens (Human), UniProt O00763)",
    "IC50 [nM]": 107
  },
  {
    "compound": "CC(C)n1ncc2c1C(=O)NC1(CCN(C(=O)c3cnc4c(Cl)c[nH]c4c3)CC1)C2 [Example 32]",
    "target-or-system": "recombinant human ACC2 (rhACC2) (Homo sapiens (Human), UniProt O00763)",
    "IC50 [nM]": 56
  },
  {
    "compound": "COc1ccc2ccc(C(=O)N3CCC4(CC3)Cc3cnn(C(C)C)c3C(=O)N4)cc2n1 [Example 28]",
    "target-or-system": "recombinant human ACC2 (rhACC2) (Homo sapiens (Human), UniProt O00763)",
    "IC50 [nM]": 56
  }
]

a = CC(C)n1ncc2c1C(=O)NC1(CCN(C(=O)c3cnc4cn[nH]c4c3)CC1)C2 [Example 19]
b = CC(C)n1ncc2c1C(=O)NC1(CCN(C(=O)c3ccc4[nH]ncc4c3)CC1)C2 [Example 5]
Prompt line: Select the item with the higher value of IC50 from the options a and b listed. Reply with the label of the item you choose.
Response line: a
(a: 2010 nM, b: 174 nM)

---

- target-or-system: recombinant human ACC2 (rhACC2) (Homo sapiens (Human))
- assay-details: recombinant hACC2 Transcreener ADP detection FP assay
- conditions: 50 uM ATP, 50 min at 25° C.
pIC50: −log10 of the molar value.
measure: pIC50

[
  {
    "compound": "CC(C)n1ncc2c1C(=O)NC1(CCN(C(=O)c3ccc4[nH]nc(C#N)c4c3)CC1)C2",
    "value-measured": 6.86
  },
  {
    "compound": "CC(C)(C)n1cc2c(n1)C(=O)NC1(CCN(C(=O)c3ccc4cn[nH]c4c3)CC1)C2",
    "value-measured": 7.77
  },
  {
    "compound": "CC(C)(C)n1cc2c(n1)C(=O)NC1(CCN(C(=O)c3ccc4ccnc(NC5CCC5)c4c3)CC1)C2",
    "value-measured": 8.57
  }
]

A = Cn1[nH]c2ccc(C(=O)N3CCC4(CC3)Cc3cn(C(C)(C)C)nc3C(=O)N4)cc2c1=O
B = Cc1n[nH]c2c(C)cc(C(=O)N3C4CCC3CC3(Cc5cn(C(C)(C)C)nc5C(=O)N3)C4)cc12 (stereo not shown)
Prompt line: Lower value of pIC50 belongs to which: A or B ? Reply with the label of the item you choose.
Response line: B

I = COc1nccc2cc(C(=O)N3CCC4(CC3)Cc3cn(C(C)(C)C)nc3C(=O)N4)ccc12
II = CC(C)(C)n1cc2c(n1)C(=O)NC1(CCN(C(=O)c3ccc4ccc(Cl)nc4c3)CC1)C2
Prompt line: Lower value of pIC50 belongs to which: I or II ? Reply with the label of the item you choose.
Response line: I

Source of measurements: patent US8993586B2
